- System: RAW-Dual
- assay_text: NF-kB SEAP reporter activity, fold change vs agonist alone; cytotoxicity flag (confluency mask): not cytotoxic; higher = enhanced NF-kB activity
- experimental_parameters: agonist: Pam2CSK4 (TLR2/6) 0.1 ug/mL
Whole data set: some 2,900 compounds, median “NF-kB SEAP reporter activity, fold change vs agonist alone” near 0.99, cut for the highest 2% near 2.6. The sample holds the highest values, similar compounds and a random draw of the others, so the mix is not that of the screen.
endpoint_label: NF-kB SEAP reporter activity
Kindly provide the number alone.

CCC1(O)CC2CN(CCc3c([nH]c4ccccc34)C(C(=O)OC)(c3cc4c(cc3OC)N(C=O)C3C(O)(C(=O)OC)C(OC(C)=O)C5(CC)C=CCN6CCC43C65)C2)C1.O=S(=O)(O)O (stereo not given) (library stock concentration (final ~1000-fold dilution): 10 mM)    1.99
COc1cc2ncnc(Nc3cc(Br)c(O)c(Br)c3)c2cc1OC (library stock concentration (final ~1000-fold dilution): 10 mM)    0.984
CC(C(=O)O)c1ccc(C(=O)c2cccs2)cc1 (stereo not given) (library stock concentration (final ~1000-fold dilution): 10 mM)    1.06
CCCS(=O)c1ccc2nc(NC(=O)OC)[nH]c2c1 (stereo not given) (library stock concentration (final ~1000-fold dilution): 10 mM)    1.05

Let us examine a further case.
Need NF-kB SEAP reporter activity of CC(Oc1cc(-n2cnc3ccc(CN4CCN(C)CC4)cc32)sc1C(N)=O)c1ccccc1C(F)(F)F (stereo not given) (library stock concentration (final ~1000-fold dilution): 10 mM) , thanks.
0.97

Reference source: the supplement of paper PMC10037445
